These data points were gathered from ChEMBL document CHEMBL5126592.

System: Staphylococcus chromogenes
Test: Antibacterial activity against Staphylococcus chromogenes incubated for 16 to 20 hrs by broth microdilution method
Assay type: functional
Conditions: time 16-20 hrs
Observable: MIC

Here's what some known entries look like.
CC[C@H]1OC(=O)C[C@@H](O)[C@H](C)[C@@H](O[C@@H]2O[C@H](C)[C@@H](O)[C@H](N(C)C)[C@H]2O)[C@@H](CCN(C)Cc2cn(-c3cnc4ccccc4c3)nn2)C[C@@H](C)C(=O)/C=C/C(C)=C/[C@@H]1CO :: 0.125 µg/mL
CC[C@H]1OC(=O)C[C@@H](O)[C@H](C)[C@@H](O[C@@H]2O[C@H](C)[C@@H](O[C@H]3C[C@@](C)(O)[C@@H](O)[C@H](C)O3)[C@H](N(C)C)[C@H]2O)[C@@H](CC=O)C[C@@H](C)C(=O)/C=C/C(C)=C/[C@@H]1CO[C@@H]1O[C@H](C)[C@@H](O)[C@@H](OC)[C@H]1OC [TYLOSIN] :: 0.5 µg/mL
CC[C@H]1OC(=O)C[C@@H](O)[C@H](C)[C@@H](O[C@@H]2O[C@H](C)[C@@H](O)[C@H](N(C)C)[C@H]2O)[C@@H](CCN(Cc2ccccc2)Cc2cn(-c3cnc4ccccc4c3)nn2)C[C@@H](C)C(=O)/C=C/C(C)=C/[C@@H]1CO :: 4 µg/mL

Please give the documented MIC of CN[C@H](CC(C)C)C(=O)N[C@H]1C(=O)N[C@@H](CC(N)=O)C(=O)N[C@H]2C(=O)N[C@H]3C(=O)N[C@H](C(=O)N[C@H](C(=O)O)c4cc(O)cc(O)c4-c4cc3ccc4O)[C@H](O)c3ccc(c(Cl)c3)Oc3cc2cc(c3O[C@@H]2O[C@H](CO)[C@@H](O)[C@H](O)[C@H]2O[C@H]2C[C@](C)(N)[C@H](O)[C@H](C)O2)Oc2ccc(cc2Cl)[C@H]1O [VANCOMYCIN] 8 µg/mL
